System: plasmodial surface anion channel (PSAC), residual transport
Assay: Osmotic lysis kinetics, residual PhTMA+ transport in infected erythrocytes (with a primary component inhibitor present)
Assay type: cell-based, Plasmodium falciparum
Details: PhTMA-Cl plus 2 μM TP-52; read-out: K0.5 for block of residual PhTMA+ transport
measure name: IC50 (nM)
Give bare numbers, in nM.

Look at this compound and give its reported IC50. CCOc1ccc(C(=O)Nc2ccc(-c3nn4c(C)nnc4s3)cc2)cc1
56
